# MEASUREMENT PROTOCOL: folding stability dG unfold (combined trypsin and chymotrypsin); higher = more stable
Decide using folding stability dG unfold: a value greater than or equal to 2 kcal/mol is YES, a smaller one is NO.

Field: example entries. Status: answers known.
SAGGSAEIEPVSSEVDPNSDRTVTTNRIPGSGKTRTVTYDSSNPGVTTVTTYAPGGKPLSTTTLPTSAGGSA [r15_974_JUSTAS] = NO
SAGGSAGGAVVKLPGNTVMTIDPSTGIAYVTDPSGKVTKYTLTKFPDKTLWEEEPVEEIPSDLLSAGGSAGG [r6_324_JUSTAS] = NO
SAGGSPMRIRDVEIEEFDPDAGRIEIRFPSNGNTIKIPIPPGHKSLKIKIRMKNGEPFEQTITIPPSAGGSA [r2_132_TrROS] = NO
SAGGSAGGSAGGPIKVKADKVTVEKRRNPENGKEYVELTVPGPGGTRTGRFPAEDLDKISAGGSAGGSAGGS [r10_447_TrROS] = NO

Challenge: Check if folding stability dG unfold >= 2 kcal/mol (inclusive). Item: MKEYLIKIKITITDPNGKKREIEITVLVPAEELTEEQLKELLEKAKELAEKLKEKGYEVKVEVEIIPLEELS [r1_221_TrROS_Hall]
Response given: YES

Challenge: Check if folding stability dG unfold >= 2 kcal/mol (inclusive). Item: SAGKPIDLGEVEVEISPVSYDPETGKLTYQARLVTKDGKPIYTASVTYDPKTGKFSISVTPIGYDPSAFSAG [r5_200_TrMRF]
Response given: YES

Challenge: Check if folding stability dG unfold >= 2 kcal/mol (inclusive). Item: SAGGSAGGSAGGKKVKITVVLEFDGVLLVAEAEIEFDENGKIVEIKVKVELFPAPEEGEESAGGSAGGSAGG [r7_135_TrROS_Hall]
Response given: YES
